All figures here come from paper PMC7819943.

EXPERIMENTAL TARGET: OsWRKY34 (Oryza sativa, UniProt Q0JBA9 1-250)
Sequence (Q0JBA9 entry or part of it): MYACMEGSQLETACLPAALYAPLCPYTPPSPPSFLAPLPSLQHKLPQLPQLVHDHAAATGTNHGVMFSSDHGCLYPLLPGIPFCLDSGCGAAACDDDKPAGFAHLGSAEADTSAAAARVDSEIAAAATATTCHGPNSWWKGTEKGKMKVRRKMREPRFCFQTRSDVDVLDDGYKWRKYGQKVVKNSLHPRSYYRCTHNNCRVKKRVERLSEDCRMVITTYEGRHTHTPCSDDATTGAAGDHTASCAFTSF
METHOD SUMMARY: protein-binding microarray (RPBM); PBS, 2% BSA, 51.3 ng/ul salmon testes DNA, 50 uM zinc acetate, 200 nM TF, 25 C, 1 h; high values mean tight binding
EXPERIMENTAL PARAMETERS: protein: recombinant; tags: N-terminal polyhistidine and DsRed monomer fusion (pET32a); label: CyDye5-dUTP incorporated in the synthesized complementary strand; 3' TTTTT single-stranded linker to array surface; dsDNA, one strand shown
Over roughly 68,000 sequences, “fluorescence intensity (a.u.)” has its median near 9,100; the highest 2% begin near 16,000. For the sample, the highest values were picked, then their nearest neighbours and some sequences at random.
QUANTITY: binding signal

                                  seq_string        quantity                               result
 0  TTTTGTGGTATTTTAAACATGGTTTATATTTCTTATATTTCGGAGTCACCTAGTGCAG  binding signal   9830 fluorescence intensity (a.u.)
 1  TCCCTAAATATTTGACGCCATTGACTTTTTTAAACATGTTCGGAGTCACCTAGTGCAG  binding signal  11200 fluorescence intensity (a.u.)
 2  TTGACGCCGTTGACTTTTCTAAACATATTTGACTATTCGTCGGAGTCACCTAGTGCAG  binding signal  22300 fluorescence intensity (a.u.)
 3  ATCTTCTATTCACGGCTTGCCATCTGTGCACTGTAATTTTCGGAGTCACCTAGTGCAG  binding signal   9850 fluorescence intensity (a.u.)
 4  CGTTCGCATCCACCACCAGTGCTCCGCCTGCCAGATCCATCGGAGTCACCTAGTGCAG  binding signal   9140 fluorescence intensity (a.u.)
 5  ACGGTTGTGTATTTCATAGTAGGGTGTAAATGTACGCTGACGGAGTCACCTAGTGCAG  binding signal   8030 fluorescence intensity (a.u.)
 6  GCCCCATCCACCGCACCACACGTCTCTTTTTTTCGCGACTCGGAGTCACCTAGTGCAG  binding signal  14600 fluorescence intensity (a.u.)
 7  ACTATGGGCTTTTGCATCAACAATTGCGAATTTTTTGTATCGGAGTCACCTAGTGCAG  binding signal   9280 fluorescence intensity (a.u.)
 8  ATATCATGTTTATTATCTTGTTATTTTGGATTAAAATATGCGGAGTCACCTAGTGCAG  binding signal   9720 fluorescence intensity (a.u.)
 9  CGCTCCACCACCCGCCCGCTCGCCCATTTCCTCTCCCTTTCGGAGTCACCTAGTGCAG  binding signal  12300 fluorescence intensity (a.u.)
10  CCCCTCGCCGCCCTCTCTCTCACAGTCTCACGCATCCCATCGGAGTCACCTAGTGCAG  binding signal   8440 fluorescence intensity (a.u.)

====

// values below are reported binding signal
EXPERIMENTAL TARGET: OsWRKY34 (Oryza sativa, UniProt Q0JBA9 1-250)
METHOD SUMMARY: protein-binding microarray (RPBM); PBS, 2% BSA, 51.3 ng/ul salmon testes DNA, 50 uM zinc acetate, 200 nM TF, 25 C, 1 h; high values mean tight binding
EXPERIMENTAL PARAMETERS: protein: recombinant; tags: N-terminal polyhistidine and DsRed monomer fusion (pET32a); label: CyDye5-dUTP incorporated in the synthesized complementary strand; 3' TTTTT single-stranded linker to array surface; dsDNA, one strand shown
Over roughly 68,000 sequences, “fluorescence intensity (a.u.)” has its median near 9,100; the highest 2% begin near 16,000. This excerpt belongs to a sample that is enriched for the highest values.
QUANTITY: binding signal

>>> print(df.to_string())
                                  seq_string                       experimental_target                               result
 0  TATATATATATATATATATATATATATATATATGTGTGTGCGGAGTCACCTAGTGCAG  OsWRKY34 (Oryza sativa, UniProt Q0JBA9 1-250)  18100 fluorescence intensity (a.u.)
 1  TTTTTTTCAATTCGTTTTTTTTTCATTTTTCATCGTCTTTCGGAGTCACCTAGTGCAG  OsWRKY34 (Oryza sativa, UniProt Q0JBA9 1-250)   8400 fluorescence intensity (a.u.)
 2  GAACCTAGAAATATTGTCTGTTTTCCTGCCGAACTGAACTCGGAGTCACCTAGTGCAG  OsWRKY34 (Oryza sativa, UniProt Q0JBA9 1-250)   9900 fluorescence intensity (a.u.)
 3  TGCTGTGGTGTGGTGTGGTGTGAATTTTGTTGATTGGTCGCGGAGTCACCTAGTGCAG  OsWRKY34 (Oryza sativa, UniProt Q0JBA9 1-250)   8750 fluorescence intensity (a.u.)
 4  TCATTCCGATTTGGTGGGGTTTGAGTTTGATTGATTCTTTCGGAGTCACCTAGTGCAG  OsWRKY34 (Oryza sativa, UniProt Q0JBA9 1-250)  19300 fluorescence intensity (a.u.)
 5  TTAATTATATGCTAATGGCTAACCTTATTTTACGTATCTTCGGAGTCACCTAGTGCAG  OsWRKY34 (Oryza sativa, UniProt Q0JBA9 1-250)   8180 fluorescence intensity (a.u.)
 6  TCGCGACCTCTCATCTATCGATCTTTGCATACATATATATCGGAGTCACCTAGTGCAG  OsWRKY34 (Oryza sativa, UniProt Q0JBA9 1-250)  17800 fluorescence intensity (a.u.)
 7  GAATCATGTGCTATCTCGTTAATTATCTGCTCTTTTAGCTCGGAGTCACCTAGTGCAG  OsWRKY34 (Oryza sativa, UniProt Q0JBA9 1-250)   9000 fluorescence intensity (a.u.)
 8  GCTTCCTTGTCCGATTTGGTGGTTGATTCGTGTTTTTGCTCGGAGTCACCTAGTGCAG  OsWRKY34 (Oryza sativa, UniProt Q0JBA9 1-250)   9300 fluorescence intensity (a.u.)
 9  ACCATCACTTTTACTCTCTTTCTGCCTTAAAATCTCAATACGGAGTCACCTAGTGCAG  OsWRKY34 (Oryza sativa, UniProt Q0JBA9 1-250)   8590 fluorescence intensity (a.u.)
10  TTCCCCTTGCTCTTGCATTTGCTGCCGCTCTTCGCCTCTTCGGAGTCACCTAGTGCAG  OsWRKY34 (Oryza sativa, UniProt Q0JBA9 1-250)   9270 fluorescence intensity (a.u.)
11  TAGGTTTTTTTTTACTTTTTAACTTGGCTGATTTTATTGACGGAGTCACCTAGTGCAG  OsWRKY34 (Oryza sativa, UniProt Q0JBA9 1-250)   8760 fluorescence intensity (a.u.)
12  TATATATATATATATATATGTGTGTGTGTGTGTGTATGGTCGGAGTCACCTAGTGCAG  OsWRKY34 (Oryza sativa, UniProt Q0JBA9 1-250)   9770 fluorescence intensity (a.u.)
13  CTCTCAGCCGGTCTATCAATTCCCCTTTCTGATACAATAACGGAGTCACCTAGTGCAG  OsWRKY34 (Oryza sativa, UniProt Q0JBA9 1-250)   9570 fluorescence intensity (a.u.)
